The measured values listed here are drawn from patent US9040530B2.

target.of.assay: full length active recombinant SYK enzyme (Homo sapiens, UniProt P43405)
Construct: full length active recombinant SYK enzyme (Millipore, Calif.)
test: Inhibition of Syk tyrosine phosphorylation activity (LANCE TR-FRET kinase assay)
experimental.context: 1 nM active SYK enzyme, 550 nM SYK-substrate, 100 μM ATP, 1 hour at room temperature
result.type: IC50

Worked examples follow.
Cc1ccc(Nc2nc(N[C@@H]3CCCC(F)(F)[C@@H]3N)nnc2C(N)=O)cc1Cl | 10 to 100 nM
NC(=O)c1nnc(N[C@@H]2CCCC(F)(F)[C@@H]2N)nc1Nc1ccc2c(c1)CCOC2 | 10 to 100 nM

Dear reader, for each entry below, please note its IC50.
1. Cn1ccc2ccc(Nc3nc(N[C@@H]4CCCC(F)(F)[C@@H]4N)nnc3C(N)=O)cc21
2. NC(=O)c1nnc(N[C@@H]2CCCC[C@@H]2N)nc1Nc1ccc(-c2ncco2)cc1
3. Cc1ccc(Nc2nc(N[C@H](Cc3cccc(F)c3)C(N)=O)nnc2C(N)=O)cc1
4. CC(C)C[C@@H](Nc1nnc(C(N)=O)c(Nc2ccc3cc[nH]c3c2)n1)C(N)=O
5. CC[C@@H](Nc1nnc(C(N)=O)c(Nc2cccc(C(F)(F)F)c2)n1)C(N)=O
6. CC[C@@H](Nc1nnc(C(N)=O)c(Nc2ccc(-n3nccn3)cc2)n1)C(N)=O
7. CC[C@@H](Nc1nnc(C(N)=O)c(Nc2ccc3c(c2)CCOC3)n1)C(N)=O
8. Cn1ncc2c(Nc3nc(N[C@@H]4CCCC[C@@H]4N)nnc3C(N)=O)cccc21

## Output
1. 10 to 100 nM
2. 1 to 10 nM
3. 10 to 100 nM
4. 1 to 10 nM
5. 100 to 1000 nM
6. 10 to 100 nM
7. 10 to 100 nM
8. 1 to 10 nM

Dear reader, for each entry below, please note its IC50.
1. NC(=O)c1nnc(N[C@@H]2CCCC[C@@H]2N)nc1Nc1ccc(C(F)(F)F)cc1
2. NC(=O)c1nnc(N[C@@H]2CCCC[C@@H]2N)nc1Nc1ccc(F)nc1
3. COc1cc(Nc2nc(N[C@@H]3CCCC[C@@H]3N)nnc2C(N)=O)ccn1

## Output
1. 10 to 100 nM
2. 100 to 1000 nM
3. 1 to 10 nM

Dear reader, for each entry below, please note its IC50.
1. Cc1ccc(Nc2nc(N[C@H](Cc3ccc(F)cc3)C(N)=O)nnc2C(N)=O)cc1
2. CC[C@@H](Nc1nnc(C(N)=O)c(Nc2ccc3cnn(C)c3c2)n1)C(N)=O
3. NC(=O)c1nnc(N[C@@H]2CCCC(F)(F)[C@@H]2N)nc1Nc1ccc(C(F)(F)F)cc1

## Output
["10 to 100 nM", "1 to 10 nM", "10 to 100 nM"]

---

Answer each item with its documented IC50.
target.of.assay: full length active recombinant SYK enzyme (Homo sapiens)
Construct: full length active recombinant SYK enzyme (Millipore, Calif.)
test: Inhibition of Syk tyrosine phosphorylation activity (LANCE TR-FRET kinase assay)
experimental.context: 1 nM active SYK enzyme, 550 nM SYK-substrate, 100 μM ATP, 1 hour at room temperature

Worked examples follow.
NC(=O)c1nnc(N[C@H](CC(F)(F)F)C(N)=O)nc1Nc1ccc2ncccc2c1 | 1 to 10 nM
NC(=O)c1nnc(N[C@@H]2CCCC[C@@H]2N)nc1Nc1cccc(-n2cncn2)c1 | 1 to 10 nM
Cc1cccc(Nc2nc(N[C@@H]3CCCC(F)(F)[C@@H]3N)nnc2C(N)=O)c1 | 10 to 100 nM

# next compound below
Per the records, this compound ( "COc1cc(Nc2nc(N[C@H](CC(C)C)C(N)=O)nnc2C(N)=O)ccn1" ) has IC50 equal to 10 to 100 nM

---

target.of.assay: full length active recombinant SYK enzyme (Homo sapiens)
Construct: full length active recombinant SYK enzyme (Millipore, Calif.); purchased Millipore
test: Inhibition of Syk tyrosine phosphorylation activity (LANCE TR-FRET kinase assay)
Type: biochemical
experimental.context: 1 nM active SYK enzyme, 550 nM SYK-substrate, 100 μM ATP, 1 hour at room temperature
result.type: IC50

Worked examples follow.
CC[C@@H](Nc1nnc(C(N)=O)c(Nc2ccc(OC)c(Cl)c2)n1)C(N)=O [Example 174] | 10 to 100 nM
NC(=O)c1nnc(N[C@@H]2CCCC(F)(F)[C@@H]2N)nc1Nc1ccc2c(c1)CCCC2 [Example 237] | 10 to 100 nM

Dear reader, for each entry below, please note its IC50.
1. Cn1ncc2ccc(Nc3nc(N[C@H](CC(F)F)C(N)=O)nnc3C(N)=O)cc21 [Example 184]
2. NC(=O)c1nnc(N[C@@H]2CCCC[C@@H]2N)nc1Nc1ccc2scnc2c1 [Example 41]

## Output
< 1 nM
1 to 10 nM

---

target.of.assay: full length active recombinant SYK enzyme (Homo sapiens)
Construct: full length active recombinant SYK enzyme (Millipore, Calif.)
test: Inhibition of Syk tyrosine phosphorylation activity (LANCE TR-FRET kinase assay)
experimental.context: 1 nM active SYK enzyme, 550 nM SYK-substrate, 100 μM ATP, 1 hour at room temperature
pIC50: −log10 of the molar value.
result.type: pIC50

COC[C@@H](Nc1nnc(C(N)=O)c(Nc2ccc(C)cc2)n1)C(N)=O | 6.00 to 7.00
NC(=O)c1nnc(N[C@@H]2CCCC[C@@H]2N)nc1Nc1cccc(-c2ncccn2)c1 | 8.00 to 9.00
NC(=O)c1nnc(N[C@@H]2CCCC[C@@H]2N)nc1Nc1cccc2ncccc12 | 8.00 to 9.00

Dear reader, for each entry below, please note its pIC50.
1. NC(=O)c1nnc(N[C@@H]2CCCC[C@@H]2N)nc1Nc1ccc(N2CCOCC2=O)c(F)c1
2. Cn1cc(C#N)c2ccc(Nc3nc(N[C@@H]4CCCC[C@@H]4N)nnc3C(N)=O)cc21

## Output
["6.00 to 7.00", "8.00 to 9.00"]

Dear reader, for each entry below, please note its pIC50.
1. CC[C@@H](Nc1nnc(C(N)=O)c(Nc2cccc3c2ccn3C)n1)C(N)=O
2. Cc1cc(Nc2nc(N[C@@H]3CCCC(F)(F)[C@@H]3N)nnc2C(N)=O)ccc1Cl
3. Cn1ccc2c(Nc3nc(N[C@@H]4CCCC[C@@H]4N)nnc3C(N)=O)cccc21

## Output
["8.00 to 9.00", "7.00 to 8.00", "8.00 to 9.00"]

---

target.of.assay: full length active recombinant SYK enzyme (Homo sapiens)
Construct: full length active recombinant SYK enzyme (Millipore, Calif.)
test: Inhibition of Syk tyrosine phosphorylation activity (LANCE TR-FRET kinase assay)
experimental.context: 1 nM active SYK enzyme, 550 nM SYK-substrate, 100 μM ATP, 1 hour at room temperature
pIC50: −log10 of the molar value.
result.type: pIC50

CN(C)c1ccc(Nc2nc(N[C@@H]3CCCC[C@@H]3N)nnc2C(N)=O)cc1Cl | 8.00 to 9.00
C[N+]1([O-])CCC(c2ccc(Nc3nc(N[C@@H]4CCCC[C@@H]4N)nnc3C(N)=O)cc2)CC1 (stereo partly shown) | 7.00 to 8.00
NC(=O)c1nnc(N[C@@H]2CCCC[C@@H]2N)nc1Nc1ccc(F)c(Cl)c1 | 8.00 to 9.00

# next molecule below
Per the records, this molecule ( "COc1ccc(Nc2nc(N[C@@H]3CCCC[C@@H]3N)nnc2C(N)=O)cc1Cl" ) has pIC50 equal to 8.00 to 9.00

---

target.of.assay: full length active recombinant SYK enzyme (Homo sapiens, UniProt P43405)
Construct: full length active recombinant SYK enzyme (Millipore, Calif.)
test: Inhibition of Syk tyrosine phosphorylation activity (LANCE TR-FRET kinase assay)
experimental.context: 1 nM active SYK enzyme, 550 nM SYK-substrate, 100 μM ATP, 1 hour at room temperature
Answer each item with its documented IC50.

Worked examples follow.
NC(=O)c1nnc(N[C@H]2CC[C@@H](N)CC2)nc1Nc1ccc2ncccc2c1 [Example 56] | 10 to 100 nM
NC(=O)c1nnc(N[C@@H]2CCCC(F)(F)[C@@H]2N)nc1Nc1ccc(-c2ncco2)cc1 [Example 132] | 10 to 100 nM
CC[C@@H](Nc1nnc(C(N)=O)c(Nc2ccc(C#N)cc2)n1)C(N)=O [Example 74] | 100 to 1000 nM
NC(=O)c1nnc(N[C@@H]2CCCC[C@@H]2N)nc1Nc1ccc2ncccc2c1 [Example 47] | 1 to 10 nM
NC(=O)c1nnc(N[C@@H]2CCCC[C@@H]2N)nc1Nc1nc(-c2ccccc2)no1 [Example 138] | > 1000 nM
CC[C@@H](Nc1nnc(C(N)=O)c(Nc2ccc(C(F)(F)F)cc2)n1)C(N)=O [Example 169] | 10 to 100 nM
CC[C@@H](Nc1nnc(C(N)=O)c(Nc2cc(Cl)c3ncccc3c2)n1)C(N)=O [Example 177] | 1 to 10 nM
Cn1cc(C#N)c2ccc(Nc3nc(N[C@@H]4CCOC[C@@H]4N)nnc3C(N)=O)cc21 [Example 172] | 1 to 10 nM
Cc1cc(Nc2nc(N[C@@H]3CCOC[C@@H]3N)nnc2C(N)=O)sn1 [Example 142] | 10 to 100 nM
Cc1cccc(Nc2nc(N[C@@H]3CCCC[C@@H]3N)nnc2C(N)=O)c1 [Example 11] | < 1 nM

Dear reader, for each entry below, please note its IC50.
1. Cn1ccc2cc(Nc3nc(N[C@@H]4CCCC(F)(F)[C@@H]4N)nnc3C(N)=O)cnc21 [Example 151]
2. NC(=O)c1nnc(N[C@@H]2CCOC[C@@H]2N)nc1Nc1ccc(-c2ncco2)cc1 [Example 253]

## Output
["100 to 1000 nM", "10 to 100 nM"]
